Where these numbers come from: patent EP0005541A2

# Test system: Erysiphe graminis
# measurement-notes: Erysiphe graminis protective spray test on barley seedlings (greenhouse)
# Assay type: in vivo
# applied-conditions: 160 mg/l Spritzbrühe; barley seedlings HERTA, infected 2 days after spraying, read 7 days after infection vs infected untreated control
value-kind: Wirkung (in %) Erysiphe graminis
Numbers only, in %.

Reference set, count: 5
# compound, value-kind, reading
measured = [
    ("CC(CN1CCC2(CC1)OCCO2)=C(C)c1ccc(C(C)(C)C)cc1", "Wirkung (in %) Erysiphe graminis", 100),
    ("CC(Cc1ccc(C(C)(C)C)cc1)CN1CCC(=O)CC1 (stereo not drawn)", "Wirkung (in %) Erysiphe graminis", 100),
    ("CCC(C)(C)c1ccc(C(C)=C(C)CN2CCC(=O)CC2)cc1", "Wirkung (in %) Erysiphe graminis", 98),
    ("CC(CN1CCCCC1)C(O)c1ccc(C(C)(C)C)cc1 (stereo not drawn)", "Wirkung (in %) Erysiphe graminis", 98),
    ("CC(CN1CCC(=O)CC1)=C(C)c1ccc(C(C)(C)C)cc1", "Wirkung (in %) Erysiphe graminis", 100),
]

For every record below, what is its Wirkung (in %) Erysiphe graminis?
1. CCC(C)(C)c1ccc(C(C)=C(C)CN2CCC3(CC2)OCCO3)cc1
2. CC(Cc1ccc(C(C)(C)CCl)cc1)CN1CC(C)OC(C)C1 (stereo not drawn)
3. CC(Cc1ccc(C(C)(C)C)cc1)CN1CCC2(CC1)OCCO2 (stereo not drawn)
4. CCC(C)(C)c1ccc(CC(C)CN2CCC3(CC2)OCCO3)cc1 (stereo not drawn)
5. CC(Cc1ccc(C(C)(C)CCl)cc1)CN1CCCCC1 (stereo not drawn)
6. CC(Cc1ccc(C(C)(C)CCl)cc1)CN1CC(C)CC(C)C1 (stereo not drawn)
7. CCC(C)(C)c1ccc(CC(C)CN2CCC(=O)CC2)cc1 (stereo not drawn)

Output:
[98, 100, 85, 100, 97, 100, 100]
